system: T47D; assay: Antiproliferative activity against human T47D cells assessed as reduction in cell viability incubated for 72 hrs by XTT assay
pIC50: −log10 of the molar value.
Rule: TRUE for pIC50 not less than 4, FALSE for anything less.

COc1ccc(CCN2CCC[C@@H]2COC(c2ccccc2)c2ccccc2)cc1: FALSE
COc1ccc(CCN2CCC[C@@H]2COC(c2ccccc2)c2ccc(Cl)cc2)cc1 (stereo not given in full): FALSE
CN(C)c1ccc(CCN2CCC[C@@H]2CO)cc1: TRUE
CN(C)c1ccc(CCN2CCC[C@@H]2COC(c2ccccc2)c2ccc(Cl)cc2)cc1 (stereo not given in full): TRUE

Turning now to a further compound:
Assess whether reported pIC50 for COc1ccc(CCN2CCC[C@@H]2COCc2ccc(Cl)cc2)cc1 sits at 4 or higher. TRUE

* * *

Molecular target: Transient receptor potential cation channel subfamily V member 6 (Homo sapiens)
Sequence (Q9H1D0 whole entry): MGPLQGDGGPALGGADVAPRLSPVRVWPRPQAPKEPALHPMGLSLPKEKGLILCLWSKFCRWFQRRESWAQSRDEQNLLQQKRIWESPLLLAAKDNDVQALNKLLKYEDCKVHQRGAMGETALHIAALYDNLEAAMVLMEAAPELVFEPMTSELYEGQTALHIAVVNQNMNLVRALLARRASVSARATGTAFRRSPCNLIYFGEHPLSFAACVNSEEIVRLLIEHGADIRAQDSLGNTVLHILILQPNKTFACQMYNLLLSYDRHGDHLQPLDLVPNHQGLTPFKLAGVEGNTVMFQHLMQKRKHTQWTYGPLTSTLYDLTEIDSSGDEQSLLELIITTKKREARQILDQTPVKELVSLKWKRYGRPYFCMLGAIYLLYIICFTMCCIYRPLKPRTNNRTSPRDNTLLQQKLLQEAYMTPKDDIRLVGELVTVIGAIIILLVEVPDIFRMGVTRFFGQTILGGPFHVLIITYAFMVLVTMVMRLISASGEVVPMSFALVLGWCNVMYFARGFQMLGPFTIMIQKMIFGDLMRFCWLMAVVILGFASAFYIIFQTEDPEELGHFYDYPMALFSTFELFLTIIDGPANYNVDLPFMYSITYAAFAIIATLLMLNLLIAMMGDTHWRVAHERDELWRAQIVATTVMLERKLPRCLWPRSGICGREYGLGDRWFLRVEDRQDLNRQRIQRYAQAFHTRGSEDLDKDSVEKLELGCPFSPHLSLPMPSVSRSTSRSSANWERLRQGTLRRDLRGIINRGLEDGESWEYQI
Experiment: Inhibition of TRPV6 (unknown origin) transfected in HEK293 cells assessed as reduction in TRPV6-induced Cd2+ influx
Value Type: pIC50
Scale note: pIC50 = -log10(concentration in M).

Observe how each entry below is paired with its result.
c1ccc(Oc2cccc(CN3CCN(Cc4cccnc4)CC3)c2)cc1: 4.77
c1ccc(C2CCC(N3CCN(Cc4ccco4)CC3)CC2)cc1 (stereo not given): 4.60
c1ccc(COc2ccccc2CNC23CC4CC(CC(C4)C2)C3)cc1: 4.68
Fc1ccc(CCNCc2ccccc2OCc2ccc(F)cc2)cc1: 4.82

With those in mind, consider the next compound.
For COc1cc(Br)ccc1CN1CCN(C2CCC(c3ccccc3)CC2)CC1 (stereo not given) the compound record lists pIC50 as 4.59

* * *

tested on: LNCaP; test: Antiproliferative activity against human LNCaP cells assessed as reduction in cell viability incubated for 72 hrs by XTT assay
Value Type: IC50

COc1ccc(CCN2CCC[C@@H]2COC(c2ccccc2)c2ccccc2)cc1: 61000 nM
CN(C)c1ccc(CCN2CCC[C@@H]2CO)cc1: 1000 nM
COc1ccc(CCN2CCC[C@@H]2COCc2ccc(Cl)cc2)cc1: 440 nM

For CN(C)c1ccc(CCN2CCC[C@@H]2COC(c2ccccc2)c2ccc(Cl)cc2)cc1 (stereo not given in full) the compound record lists IC50 as 310 nM

For COc1ccc(CCN2CCC[C@@H]2COC(c2ccccc2)c2ccc(Cl)cc2)cc1 (stereo not given in full) the compound record lists IC50 as 50000 nM
